Ki: recorded values
testedOn: human D2 receptor (short isoform) (Homo sapiens)
Construct: expressed in transfected cells
Sequence (P14416 1-414 isoform P14416-2): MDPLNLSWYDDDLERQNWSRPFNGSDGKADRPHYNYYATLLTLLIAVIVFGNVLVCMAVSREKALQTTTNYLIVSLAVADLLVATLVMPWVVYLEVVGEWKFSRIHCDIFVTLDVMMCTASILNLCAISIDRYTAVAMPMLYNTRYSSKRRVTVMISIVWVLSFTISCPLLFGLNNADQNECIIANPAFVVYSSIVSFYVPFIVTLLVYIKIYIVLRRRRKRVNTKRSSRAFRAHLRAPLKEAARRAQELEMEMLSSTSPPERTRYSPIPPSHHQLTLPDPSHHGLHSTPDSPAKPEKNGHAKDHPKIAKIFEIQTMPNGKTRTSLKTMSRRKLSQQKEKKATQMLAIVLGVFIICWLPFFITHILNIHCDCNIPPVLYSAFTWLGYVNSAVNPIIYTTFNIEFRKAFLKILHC
protocolSummary: Dopamine D2 Receptor Binding Assay (3H-spiperone displacement)
experimentalContext: 3H-spiperone 0.25 nM; GH4C1 (rat pituitary) cells stably transfected with human D2 short; 90 minutes, room temperature, pH 7.4
reportedEndpoint: Ki (nM)

- CC1CN(C2=Nc3cc(Cl)ccc3Oc3ccccc32)CC(C)N1 (stereo not shown): 2170
- CC1CN(C2=Nc3ccccc3Oc3ccccc32)CC(C)N1 (stereo not shown): 6330
- CC1CN(C2=Nc3ccccc3Nc3cc(Cl)ccc32)CC(C)N1 (stereo not shown): 14100
- CC1CN(C2=Nc3ccccc3Oc3ccccc32)C(C)CN1 (stereo not shown): 4890
